Origin of values: ChEMBL document CHEMBL1201862

# System: LXFL 529
# Test details: NCI tumour cell line growth inhibition, 48 h
Calls of active or inactive are those of the source. Cut-off read from the data, not from the text of the source: active = GI50 up to about 1.1 µM and inactive = higher.
Labels: active, inactive

                                   molecule  answer_label
0  Cc1ccc(N(C(=O)CC(=O)N2N=C(c3ccccc3)C(/N=N/c3ccc([N+](=O)[O-])cc3)C2=O)C(=O)c2ccc(Cl)cc2)cc1 (centres undefined)      inactive
1  CC(C)N(C(=O)C12C3C4C1C1C2C3C41C(=O)C(C)(C)C)C(C)C (centres undefined)      inactive
2  COc1cccc2c1C(=O)c1c(O)c3c(c(O)c1C2=O)C[C@@](O)(/C(C)=N\O)C[C@@H]3OC1CC(N)C(O)C(C)O1 (some centres undefined)        active
3        C/C(CC(=O)Nc1cccc(C)c1C)=N\NC(N)=S      inactive
4  COc1ccc(-c2cc(=O)c3c(OC)cccc3o2)c(OC)c1OC      inactive
5  Cc1ccc(S(=O)(=O)N/N=C(/CC(=O)c2c(C)[n+]([O-])c3ccccc3[n+]2[O-])C(=O)Nc2ccccc2C)cc1      inactive
6     O=S(=O)(N/N=C/c1cccc(Cl)c1Cl)c1ccccc1      inactive
7       CC(C)=CC(=O)Oc1ccc([N+](=O)[O-])cc1      inactive
8        N/C(=N\N=C=C1C(=O)Nc2ccc(F)cc21)NO      inactive
